experiment: Hepatotoxicity in rat assessed as effect on central veins in liver at 50 mg/kg by hematoxylin and eosin staining based assay; assay type: toxicity, organism-based; settings: in vivo
Assay Metric: Activity

Molecule: S=c1nc(-c2ccc(Cl)cc2)cc(-c2cn(-c3ccccc3)nc2-c2ccc(OCc3ccccc3)cc2)[nH]1
Recorded Value: Toxic
//
Molecule: Cc1ccc(-c2cc(C(F)(F)F)nn2-c2ccc(S(N)(=O)=O)cc2)cc1 [CELECOXIB]
Recorded Value: Toxic
//
Molecule: Clc1ccc(-c2cc(-c3cn(-c4ccccc4)nc3-c3ccc(OCc4ccccc4)cc3)on2)cc1
Recorded Value: Toxic
//
Molecule: COc1ccc2c(c1)c(CC(=O)O)c(C)n2C(=O)c1ccc(Cl)cc1 [INDOMETHACIN]
Recorded Value: Toxic
//
Molecule: N#CC1=C(N)OC(c2ccccc2)=CC1c1cn(-c2ccccc2)nc1-c1ccc(OCc2ccccc2)cc1 (centres undefined)
Recorded Value: Toxic
//
Molecule: Nc1nc(-c2ccccc2)cc(-c2cn(-c3ccccc3)nc2-c2ccc(OCc3ccccc3)cc2)n1
Recorded Value: Toxic
//
Molecule: O=C(/C=C/c1cn(-c2ccccc2)nc1-c1ccc(OCc2ccccc2)cc1)c1ccccc1
Recorded Value: Non-Toxic
//
Molecule: CC(=O)n1nc(-c2ccccc2)cc1-c1cn(-c2ccccc2)nc1-c1ccc(OCc2ccccc2)cc1
Recorded Value: Toxic
//
Molecule: O=C(/C=C/c1cn(-c2ccccc2)nc1-c1ccc(OCc2ccccc2)cc1)c1ccc(Cl)cc1
Recorded Value: Non-Toxic
